Test system: MDA-MB-435 melanoma
Experiment: NCI-60 one-dose screen, 48 h (100 = growth as untreated, 0 = no growth, -100 = all killed)
Details: 10 µM unless noted
The panel holds about 83,000 compounds, 20% with a hit somewhere; the sample as a whole holds those more often.
measurement-label: growth (%)
A number alone suffices; assume %.

Some solved entries appear below for comparison.
compound	target-or-test-system	reported-result
CC1(C)CC[C@]2(C(=O)O)CC[C@]3(C)C(=CCC4[C@@]5(C)C[C@@H](O)[C@@H]6OC(c7cccc([N+](=O)[O-])c7)OC[C@@]6(C)C5CC[C@]43C)C2C1 (some centres undefined)	MDA-MB-435 melanoma	85.5
CNC(=O)c1cc(N2CCc3cc(NC(=O)Nc4ccc(Cl)c(Cl)c4)ccc32)ccn1	MDA-MB-435 melanoma	84.2
COc1ccc(N2C(=O)c3cc(OC)c(OC)cc3NC2SCc2ccccc2)cc1 (centres undefined)	MDA-MB-435 melanoma	107

Ask: Item CC(C)(C)CC(C)(C)n1nnnc1C(Nc1ccccc1)c1cc2cccc3ccc4cccc1c4c32 (centres undefined) : provide growth
Reply: 83.6

###

System: MCF7 breast
Test: NCI-60 one-dose screen, 48 h
Conditions: 10 µM unless noted
Experimental: Growth inhibition of the MCF7 human tumor cell line is measured as a screen for anti-cancer activity. Cells are grown in 96 well plates and exposed to the test compound for 48 hours. Compounds are tested at a single concentration, which is 10^-5 M for most compounds. The reported endpoint is percent growth (GI% or GIPRCNT), where numbers from 0 - 100% represent growth inhibition, and numbers from -100% - 0 represent cell death. For example, a value of 40 represents 60% growth inhibition. […]
Compounds without any hit were thinned out: in the full panel of roughly 83,000, 20% have a hit. Calls of active or inactive are those of the source. How the source made its calls: active means growth percent below 10; inactive means the rest.
Could you please pick one outcome from this set? active, inactive

Worked examples follow.
compound	label-class
C/C(=N/Nc1nc(N/N=C(/C)c2ccc([N+](=O)[O-])cc2)nc(N2CCOCC2)n1)c1ccc([N+](=O)[O-])cc1	inactive
CCOC(=O)Nc1ccc(-c2nc(-c3cccc(O)c3)c(-c3ccnc(Br)c3)[nH]2)cc1	inactive
O=S(=O)(Nc1cc(Cl)cc(Cl)c1)c1ccc(-c2cnc(C3CC3)o2)cc1	inactive
CNC(=O)c1cc(N2CCc3cc(NC(=O)Nc4ccc(Cl)c(Cl)c4)ccc32)ccn1	inactive
COc1ccc2oc3c4[nH]c5ccccc5c4c4c(c3c2c1)C(=O)N(O)C4=O	inactive
O=C(CSc1nnc(-c2cccs2)n1-c1ccccc1)Nc1ccc(F)cc1	inactive

Ask: Hey, what did the test say about N#C/C(=C\c1ccc2ccccc2c1)C(=O)Nc1sc2c(c1C#N)CCC2 ?
Reply: inactive

Ask: Hey, what did the test say about O=C(COc1ccc(C2SCC(=O)N2c2ccccc2)cc1)c1ccccc1 (stereo not drawn) ?
Reply: inactive

Ask: Hey, what did the test say about CS(=O)(=O)c1ccc2c(c1)c1c(n2C(=O)c2ccc(Cl)cc2)CCCC1 ?
Reply: inactive

###

Test system: SNB-19 CNS
Experiment: NCI-60 one-dose screen, 48 h (100 = growth as untreated, 0 = no growth, -100 = all killed)
Conditions: 10 µM unless noted
Compounds without any hit were thinned out: in the full panel of roughly 83,000, 20% have a hit.
If the reported growth equals or exceeds 30%, assign 1. If not, assign 0.

compound	target-or-test-system	label-class
O=C1NC(=O)c2c1c1c3ccccc3ccc1c1[nH]c3ccccc3c21	SNB-19 CNS	0
Oc1ccc(-c2nnc(SCc3ccc(O)c4ncccc34)n2-c2ccccc2)cc1	SNB-19 CNS	0
Cc1cn(-c2cc(NC(=O)c3cncc(C#Cc4cnc5ccc(OCCCS(C)(=O)=O)nn45)c3)cc(C(F)(F)F)c2)cn1	SNB-19 CNS	0
C#C[C@]1(O)CC[C@H]2[C@@H]3CC=C4c5sc(Nc6cccc(C)n6)nc5CC[C@]4(C)[C@H]3CC[C@@]21C	SNB-19 CNS	0
Cc1nn(-c2ccccc2)c2nc(CCl)[nH]c(=O)c12	SNB-19 CNS	1
IP(CCCSc1n(Cc2ccc3ccccc3c2)c(-c2ccccc2)c(-c2ccccc2)[n+]1Cc1ccc2ccccc2c1)(c1ccccc1)(c1ccccc1)c1ccccc1	SNB-19 CNS	0

Ask: Is growth for CCCCCCNC(=O)Oc1ccc(/C(=C(/C)c2ccc(OC)cc2)c2ccc(OCCN3CCCC3)cc2)cc1 at or above 30%?
Reply: 1

###

Tested on: HCC-2998 colon
Experiment: NCI-60 one-dose screen, 48 h
Details: 10 µM unless noted
About 83,000 compounds went through this panel and 20% of them were active in at least one assay; those are over-represented in the sample as a whole. Calls of active or inactive are those of the source. The calls were made as follows: active = growth percent below 10; inactive = the rest.
Could you please pick one outcome from this set? yes (1) = active, no (0) = inactive

Clc1ccccc1/C=C/c1nn2c(-c3ccncc3)nnc2s1 no (0)
Cc1cc(F)cc(NS(=O)(=O)c2ccc(-c3cnc(C4CC4)o3)cc2)c1 no (0)
O=C(Nc1cccc(Cl)c1)Nc1nc2ccc(-c3cccc4ccccc34)cc2s1 no (0)
Cc1csc(Nc2cccc(Nc3nc(C)cs3)c2)n1 no (0)

Ask: Hey, what did the test say about CCNC(=O)Oc1ccc(/C(=C(/C)c2ccc(Cl)cc2)c2ccc(OCCN(C)C)cc2)cc1 ?
Reply: no (0)

Ask: Hey, what did the test say about NCCN1CCN(c2nc(-c3ccccc3)nc3nc(-c4ccccc4)oc23)CC1 ?
Reply: yes (1)

Ask: Hey, what did the test say about CC(=O)NC(C)(C)C(=O)N1CCC[C@H]1C(=O)NC(C)(C)C(=O)N[C@@H](C)C(=O)NC(C)(C)C(=O)N[C@@H](C)C(=O)N[C@@H](CCC(N)=O)C(=O)NC(C)(C)C(=O)N[C@H](C(=O)NC(C)(C)C(=O)NCC(=O)N[C@@H](CC(C)C)C(=O)NC(C)(C)C(=O)N1CCC[C@H]1C(=O)N[C@H](C(=O)NC(C)(C)C(=O)NC(C)(C)C(=O)N[C@@H](CCC(N)=O)C(=O)N[C@@H](CCC(N)=O)C(=O)N[C@H](CO)Cc1ccccc1)C(C)C)C(C)C ?
Reply: no (0)

###

Tested on: NCI-H23 lung
Assay: NCI-60 one-dose screen, 48 h (100 = growth as untreated, 0 = no growth, -100 = all killed)
Details: 10 µM unless noted
The panel holds about 83,000 compounds, 20% with a hit somewhere; the sample as a whole holds those more often.
measurement-label: growth (%)
A number alone suffices; assume %.

C#C[C@]1(O)CC[C@H]2[C@@H]3CC=C4c5sc(Nc6cc(Cl)ccn6)nc5CC[C@]4(C)[C@H]3CC[C@@]21C 35.4
O=C(NCCCCCCNC(=O)c1c2c(nc3ccccc13)-c1cccnc1SC2)c1c2c(nc3ccccc13)-c1cccnc1SC2 63.1
CC(C)c1nn(-c2ccccc2)c(N2CCCCC2)c1/C=N/NC(N)=S 90.9
COc1cc2oc(-c3cccc(NC(=O)c4cc(NC(=O)[C@H](C)NC(=O)OC(C)(C)C)ccc4C)c3)cc(=O)c2c(OC)c1OC 63.8
O=C(O)c1ccc(-n2cc(CNc3ccc(Cl)cc3)c(-c3ccc(F)cc3)n2)cc1 104
Cc1cc(C(=O)Nc2ccc(SC#N)cc2)c(C)o1 89.5
CNC(=O)c1cc(Oc2ccc3nc(NC(=O)c4ccc(CN5CCN(C)CC5)c(C(F)(F)F)c4)sc3c2)ccn1 51.8

Now for a further compound.
Ask: Item CC(C)C(=O)Nc1ccc(-c2nc(-c3cccc(O)c3)c(-c3ccnc(Br)c3)[nH]2)cc1 : provide growth
Reply: 63.4

###

Measured growth of individual entries
Tested on: M14 melanoma
Assay: NCI-60 one-dose screen, 48 h (100 = growth as untreated, 0 = no growth, -100 = all killed)
Settings: 10 µM unless noted
This is part of a sample that, as a whole, favours compounds with a hit. Of some 83,000 tested, about 20% had one in any assay. The source made the active and inactive calls. The calls were made as follows: active = growth percent below 10; inactive = the rest.

Ask: Please report the measured growth for Cc1csc(Nc2cccc(Nc3nc(C)cs3)c2)n1 tested on M14 melanoma.
Reply: 86% (inactive)

Ask: Please report the measured growth for COc1cc(/C=N/n2cnc3oc(-c4ccccc4)cc3c2=N)cc(CN2CCCC2)c1O tested on M14 melanoma.
Reply: 14.1% (inactive)

Ask: Please report the measured growth for CCC(C)[C@H]1OC(=O)[C@H](C(C)C)N(C)C(=O)[C@@H](C(C)C)OC(=O)[C@H](C(C)C)N(C)C(=O)[C@@H](C(C)CC)OC(=O)[C@H](C(C)C)N(C)C1=O (stereo partly specified) tested on M14 melanoma.
Reply: 17.6% (inactive)

Ask: Please report the measured growth for COc1ccc(-c2cc(-c3cccc4ccccc34)n3c(n2)nc2ccccc23)cc1 tested on M14 melanoma.
Reply: 52.1% (inactive)

Ask: Please report the measured growth for O=C1[C@H]2Cc3c([nH]c4ccccc34)[C@@H](c3c(Cl)cccc3Cl)N2C(=O)CN1C1CCN(Cc2ccccc2)CC1 tested on M14 melanoma.
Reply: 78.1% (inactive)

Ask: Please report the measured growth for CC1OC(O[C@@H]2[C@H](O)C(CO)OC(O[C@H]3COC(O[C@H]4CC[C@]5(C)[C@H]6CC[C@]78OC[C@@]9(CC[C@](C)(C=O)C[C@H]97)C(=O)C[C@@]8(C)[C@]6(C)CC[C@H]5C4(C)C)[C@@H](O)[C@@H]3O)[C@H]2OC2OC[C@@H](O)[C@@H](O)[C@@H]2O)[C@@H](O)[C@@H](O)[C@H]1O (stereo partly specified) tested on M14 melanoma.
Reply: 96.9% (inactive)

Ask: Please report the measured growth for CC(=O)Nc1cccc(-n2cnc3cc(-c4ccc(O)cc4)ccc32)c1 tested on M14 melanoma.
Reply: 53.2% (inactive)

Ask: Please report the measured growth for CC(=O)Oc1ccc(CCN2C(=O)CSC2=S)cc1 tested on M14 melanoma.
Reply: 85.7% (inactive)

Ask: Please report the measured growth for CCOC(=O)C1=C(C)Nc2nc3ccccc3n2C1c1cccc(Br)c1 (stereo unspecified) tested on M14 melanoma.
Reply: 63.4% (inactive)

Ask: Please report the measured growth for O=S(=O)(Nc1cc(Cl)cc(Cl)c1)c1ccc(-c2cnc(C3CC3)o2)cc1 tested on M14 melanoma.
Reply: 19.9% (inactive)

Ask: Please report the measured growth for c1cncc(-c2cn3nc(-c4c[nH]c5ccccc45)sc3n2)c1 tested on M14 melanoma.
Reply: 37% (inactive)

Ask: Please report the measured growth for CC(C)=CCc1c2c(c(O)c3c1O[C@]14C(=C[C@@H]5C[C@H]1C(C)(C)O[C@@]4(C/C=C(/C)C(=O)O)C5=O)C3=O)CC(O)C(C)(C)O2 (stereo partly specified) tested on M14 melanoma.
Reply: -24.8% (active)

Ask: Please report the measured growth for CCOC(=O)c1c(NCC(=O)Nc2cccc(Cl)c2)sc2c1CCCC2 tested on M14 melanoma.
Reply: 83.2% (inactive)

Ask: Please report the measured growth for COc1cc([C@H]2OC[C@H]3[C@@H]2CO[C@@H]3c2ccc(O)c(OC)c2)ccc1O tested on M14 melanoma.
Reply: 102% (inactive)

Ask: Please report the measured growth for CC(=O)Nc1ccc(NC(=O)Nc2cccc(-c3nc(-c4ccc(NC(=O)c5cccnc5)cc4Cl)no3)c2)cc1C(F)(F)F tested on M14 melanoma.
Reply: -58.7% (active)

Source of measurements: PubChem BioAssay (NCI)
